Read-out: Paternally Expressed 10 (PEG10), PEG10 (gene 23089)
method-description: LTEA_HepaRG_PEG10: Life Technologies and Expression Analysis (LTEA) Assay for Paternally Expressed 10 (PEG10) using HepaRG (AID 2283520)
run-conditions: mRNA level, 48 h; actives raise or lower the signal
Activity calls are given as the source filed them. How the source made its calls: active means hit-call score of the fitted dose curve at least 0.9, where 1 is the maximum; inactive means score below 0.9.
The reply should name one outcome from True for active, False for inactive

Reference set, count: 2
c1ccc2[nH]c(-c3cscn3)nc2c1 :: True
CCC(C)OC(=O)N1CCCCC1CCO (stereo unspecified) :: False

Kindly provide the recorded test outcome for the following compound: CC(=O)[C@H]1CC[C@H]2[C@@H]3CCC4=CC(=O)CC[C@]4(C)[C@H]3CC[C@]12C
True

Kindly provide the recorded test outcome for the following compound: C[C@]12C[C@H](O)[C@H]3[C@@H](CCC4=CC(=O)CC[C@@]43C)[C@@H]1CC[C@@H]2C(=O)CO
False

Kindly provide the recorded test outcome for the following compound: O=C(O)c1ccccc1
False

Kindly provide the recorded test outcome for the following compound: CC(C)(c1ccc(O)cc1)c1ccc(O)cc1
False

Kindly provide the recorded test outcome for the following compound: CSC(=O)c1cccc2nnsc12
False

Kindly provide the recorded test outcome for the following compound: CCOC(=O)C(C)Oc1ccc(Oc2nc3ccc(Cl)cc3o2)cc1 (stereo unspecified)
False

The reported numbers originate from PubChem BioAssay (EPA / NIEHS).
